I'd appreciate it if you could supply Ki values for the items below.
Target or system: Sodium-dependent dopamine transporter (Homo sapiens)
Sequence (Q01959 whole entry): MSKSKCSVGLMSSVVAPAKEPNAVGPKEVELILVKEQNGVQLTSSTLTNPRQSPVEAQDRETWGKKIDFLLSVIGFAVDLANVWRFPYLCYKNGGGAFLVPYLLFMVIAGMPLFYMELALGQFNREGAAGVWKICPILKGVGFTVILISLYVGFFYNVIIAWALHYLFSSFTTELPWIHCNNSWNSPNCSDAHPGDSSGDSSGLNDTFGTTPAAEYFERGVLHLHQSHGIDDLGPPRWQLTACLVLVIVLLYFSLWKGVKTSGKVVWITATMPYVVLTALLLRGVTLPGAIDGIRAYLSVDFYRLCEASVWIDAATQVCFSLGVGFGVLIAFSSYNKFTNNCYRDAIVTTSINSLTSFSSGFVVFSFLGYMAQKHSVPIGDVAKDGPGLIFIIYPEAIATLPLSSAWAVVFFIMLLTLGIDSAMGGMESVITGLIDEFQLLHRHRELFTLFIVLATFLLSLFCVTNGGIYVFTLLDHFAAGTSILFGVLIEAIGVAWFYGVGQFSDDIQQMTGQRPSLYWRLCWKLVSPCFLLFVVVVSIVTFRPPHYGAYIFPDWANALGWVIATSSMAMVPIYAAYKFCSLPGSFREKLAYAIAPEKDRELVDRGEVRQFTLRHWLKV
Assay protocol: Displacement of [3H]RTI-55 from human DAT transfected in human HEK293 cells
Numbers only, in µM.

Need Ki for each of these compounds.
1. O=C(OCCF)C1C2CCC(CC1c1cccc(/C=C\Br)c1)N2 (stereo unspecified)
2. O=C(OCCF)C1C2CCC(CC1c1cccc(/C=C\I)c1)N2 (stereo unspecified)
3. O=C(OCCCF)C1C2CCC(CC1c1cccc(/C=C\Br)c1)N2 (stereo unspecified)
4. O=C(OCCCF)C1C2CCC(CC1c1cccc(/C=C\I)c1)N2 (stereo unspecified)
5. O=C(OCCF)C1C2CCC(CC1c1cccc(/C=C/I)c1)N2 (trans isomer)
6. O=C(OCC[18F])C1C2CCC(CC1c1ccc(/C=C\I)cc1)N2 (stereo unspecified)

Return:
[0.0355, 0.0876, 0.119, 0.18, 0.274, 0.013]

Data credit: ChEMBL document CHEMBL1151757
